# Test system: MALME-3M melanoma
# Assay Comment: NCI tumour cell line growth inhibition, 48 h
Readout Name: GI50

Name the recorded GI50 for COc1ccc(-c2nnc(Nc3nc(O)c(C4=c5cc(F)ccc5=NC4=O)s3)o2)cc1 .
34.5 µM

What about this compound? CN(C)c1ccc(C(=C2C=CC(=[N+](C)C)C=C2)c2ccccc2Cl)cc1
0.266 µM

Again, but for CN(C)CCOc1ccc(-c2cc(-c3ccc4c(c3)CC/C4=N\O)c(-c3ccncc3)o2)cc1
0.0245 µM

COc1ccc(-c2nc(-c3nc4ccc(C(F)(F)F)cc4[nH]3)c3ccccn23)cc1 ?
> 100 µM

Now this one: COc1ccc(/C(=N/O)c2cc(OC)c(OC)c(OC)c2)c(OC)c1N
4.22 µM

Similarly, COc1ccc2nccc(/C=C/c3ccnc4ccc(OC)cc34)c2c1 ?
22.1 µM

Same again, this time with Nc1cc2nc3ccccc3oc-2cc1=O
1.67 µM

Likewise for CC1(C)N=C(N)N=C(N)N1c1ccc(Cl)c(Cl)c1 ?
32 µM

Field entry: CC(=O)c1ccc2c(c1)N(CCCN(C)C)c1ccccc1S2
17.9 µM

Query CC1(C)CC(=O)c2c(ccc(C(=O)C[C@@H](N)CO)c2N)O1 next
12.5 µM

Check Clc1ccc(N2CCC(N3CCCC3)CC2)cc1-c1nc2ccccc2[nH]1 too.
17.4 µM

Also need Cc1cc(S(N)(=O)=O)c(S/C(=N\Nc2ccc([N+](=O)[O-])cc2)c2ccc3ccccc3c2)cc1Cl , thanks.
11.7 µM

Follow-up entry: N#C/C(=C\c1cccc2cnccc12)N1N=NC2C=CC=CC21 (stereo not drawn)
3.24 µM
